Each entry below carries its reported Plant response rating, Velvetleaf.
# Test system: velvetleaf
# Assay Remarks: Test A postemergence
# Format: in vivo, Abutilon theophrasti
# Condition Label: 500 g ai/ha, 0 to 100 scale where 0 is no effect and 100 is complete control

Substance Smiles | Plant response rating, Velvetleaf
N#Cc1ccc(Oc2ncc(Cl)cn2)c(-n2cc(Br)cn2)c1 | 20
COc1ccc(Br)c(-n2cc(Br)cn2)c1Oc1ncc(Cl)cn1 | 70
Fc1cccc(Oc2ncc(Cl)cn2)c1-n1cc(I)cn1 | 100
CC#Cc1cnn(-c2ccccc2Oc2ncc(Cl)cn2)c1 | 100
FC(F)c1cccc(Oc2ncc(I)cn2)c1-n1cc(Br)cn1 | 70

Recorded values, source patent US9695155B2.
